Cited source for all entries: paper PMC10298626

assay remarks: in vitro
Type: cell-based
test context: mouse; RAW264.7 cells; 80 μM for 2 h, then LPS (500 ng/mL) 20 h; read-out: Cell viability, Average (%)
Quick list: viability at 22 h, 80 μM per entry.
Give a bare numeral; the unit % is implied.

Some entries whose results are on file:
[
  {
    "molecule": "N#CC1=C(N)Oc2c(c(=O)oc3ccccc23)C1c1ccc(OC(F)(F)F)cc1 (stereo not shown)",
    "quantity unit": "%",
    "val": 102
  },
  {
    "molecule": "N#CC1=C(N)Oc2c(c(=O)oc3ccccc23)C1c1ccccc1Br (stereo not shown)",
    "quantity unit": "%",
    "val": 138
  },
  {
    "molecule": "N#CC1=C(N)Oc2c(c(=O)oc3ccccc23)C1c1ccc(Cl)cc1 (stereo not shown)",
    "quantity unit": "%",
    "val": 93.5
  }
]

Which measured viability at 22 h, 80 μM value corresponds to N#CC1=C(N)Oc2c(c(=O)oc3ccccc23)C1c1ccccc1F (stereo not shown) ?
109

---

assay remarks: in vitro
Assay type: cell-based
test context: mouse; RAW264.7 cells; 20 μM for 2 h, then LPS (500 ng/mL) 20 h; read-out: Cell viability, Average (%)
experimental endpoint: viability at 22 h, 20 μM
Report field: quantity (unit follows the number).

Some compounds with known viability at 22 h, 20 μM results, for comparison:
[
  {
    "compound": "N#CC1=C(N)Oc2c(c(=O)oc3ccccc23)C1c1cccc(C(F)(F)F)c1 (centres unmarked)",
    "experimental endpoint": "viability at 22 h, 20 μM",
    "val": "86.8%"
  },
  {
    "compound": "N#CC1=C(N)Oc2c(c(=O)oc3ccccc23)C1c1ccc(C(F)(F)F)cc1 (centres unmarked)",
    "experimental endpoint": "viability at 22 h, 20 μM",
    "val": "98.7%"
  },
  {
    "compound": "N#CC1=C(N)Oc2c(c(=O)oc3ccccc23)C1c1ccc(F)cc1 (centres unmarked)",
    "experimental endpoint": "viability at 22 h, 20 μM",
    "val": "95.4%"
  }
]

Which viability at 22 h, 20 μM reading was recorded for the compound N#CC1=C(N)Oc2c(c(=O)oc3ccccc23)C1c1ccccc1C(F)(F)F (centres unmarked) ?
79.9%

Param item: N#CC1=C(N)Oc2c(c(=O)oc3ccccc23)C1c1cccc(C#N)c1 (centres unmarked)
131%

---

assay remarks: in vitro
Assay type: cell-based
test context: mouse; RAW264.7 cells; 20 μM for 2 h, then LPS (500 ng/mL) 20 h; read-out: Cell viability, Average (%)
viability at 22 h, 20 μM for assorted compounds
# output: number + unit

[
  {
    "compound": "N#CC1=C(N)Oc2c(c(=O)oc3ccccc23)C1c1ccccc1F (stereo not shown)",
    "viability at 22 h, 20 μM": "90.4%"
  },
  {
    "compound": "N#CC1=C(N)Oc2c(c(=O)oc3ccccc23)C1c1ccccc1OC(F)(F)F (stereo not shown)",
    "viability at 22 h, 20 μM": "99.2%"
  },
  {
    "compound": "COc1cccc(C2C(C#N)=C(N)Oc3c2c(=O)oc2ccccc32)c1 (stereo not shown)",
    "viability at 22 h, 20 μM": "107%"
  }
]

# context switch: different compound, same viability at 22 h, 20 μM
Which viability at 22 h, 20 μM is listed for N#CC1=C(N)Oc2c(c(=O)oc3ccccc23)C1c1ccc(C#N)cc1 (stereo not shown) ?
120%
